B1: NET1 (parent)
chain: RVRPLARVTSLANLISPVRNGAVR

variants of: B1; experiment: protein stability index of a GFP-peptide fusion (GPS, HEK-293T) (PSI 1-6); higher = more stable; conditions: c terminus: a fixed tail appended;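 note: lentivirally expressed fusions sorted by FACS into six bins by GFP to DsRed ratio, PSI derived from sequencing read proportions per bin multiplied by bin number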
Recorded Endpoint: protein stability index
No unit in the answer, please; the number alone is enough.

Exercise: Answer with the recorded protein stability index for the variant listed here: N20G
Solution: 2.96

Exercise: Answer with the recorded protein stability index for the variant listed here: R1L
Solution: 2

Exercise: Answer with the recorded protein stability index for the variant listed here: L11Y
Solution: 2.43

Exercise: Answer with the recorded protein stability index for the variant listed here: A22I
Solution: 2.76

Exercise: Answer with the recorded protein stability index for the variant listed here: R1Y
Solution: 2.22

Exercise: Answer with the recorded protein stability index for the variant listed here: V18Y
Solution: 2.23

Exercise: Answer with the recorded protein stability index for the variant listed here: R24V
Solution: 2.63

Exercise: Answer with the recorded protein stability index for the variant listed here: G21R
Solution: 2.42

Exercise: Answer with the recorded protein stability index for the variant listed here: R7Y
Solution: 2.77

Exercise: Answer with the recorded protein stability index for the variant listed here: L14K
Solution: 3.35

Exercise: Answer with the recorded protein stability index for the variant listed here: R7T
Solution: 3.39

Exercise: Answer with the recorded protein stability index for the variant listed here: P4E
Solution: 2
